- tested system: h4B1 (Homo sapiens, UniProt Q07343)
- Sequence (Q07343 whole entry): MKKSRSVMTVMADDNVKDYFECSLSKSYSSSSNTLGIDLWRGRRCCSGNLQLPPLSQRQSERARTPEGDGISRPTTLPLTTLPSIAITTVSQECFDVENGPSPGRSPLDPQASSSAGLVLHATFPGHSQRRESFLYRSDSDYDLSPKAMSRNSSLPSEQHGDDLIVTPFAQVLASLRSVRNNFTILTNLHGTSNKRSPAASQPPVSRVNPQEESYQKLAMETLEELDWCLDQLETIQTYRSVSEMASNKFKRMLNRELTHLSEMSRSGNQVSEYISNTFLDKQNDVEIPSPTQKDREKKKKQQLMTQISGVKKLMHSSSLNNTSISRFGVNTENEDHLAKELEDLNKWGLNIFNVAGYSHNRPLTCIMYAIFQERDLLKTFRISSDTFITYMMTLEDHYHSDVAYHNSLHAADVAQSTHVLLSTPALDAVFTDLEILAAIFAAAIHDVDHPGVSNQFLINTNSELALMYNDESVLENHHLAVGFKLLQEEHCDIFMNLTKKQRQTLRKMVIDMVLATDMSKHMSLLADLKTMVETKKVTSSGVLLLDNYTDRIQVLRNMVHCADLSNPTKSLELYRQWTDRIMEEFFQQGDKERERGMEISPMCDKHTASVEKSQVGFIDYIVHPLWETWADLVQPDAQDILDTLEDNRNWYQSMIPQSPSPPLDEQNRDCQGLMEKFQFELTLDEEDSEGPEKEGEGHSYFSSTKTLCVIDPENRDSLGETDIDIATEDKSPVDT
pIC50: −log10 of the molar value.
observed property: pIC50

entry_smiles=Nc1nc2c(-c3ccc4nonc4c3)cc(Cc3ccc(F)cc3)cc2s1 value="5.00 to 6.00"
entry_smiles=CS(=O)(=O)Nc1ccc(Cc2cc3sc(N)nc3c(-c3cccc(Cl)c3)c2F)cc1 value="5.00 to 6.00"

**Q:** May I ask what pIC50 has been recorded for `Nc1ccc(Cc2cc3scnc3c(-c3cccc(Cl)c3)c2F)cc1` ?
**A:** > 6.00

**Q:** May I ask what pIC50 has been recorded for `COc1ccc(Cc2cc3scnc3c(-c3cccc(Cl)c3)c2F)cn1` ?
**A:** 5.00 to 6.00

**Q:** May I ask what pIC50 has been recorded for `Nc1ccc(Cc2cc(-c3cccc(Cl)c3)c3ncsc3c2)cc1` ?
**A:** > 6.00
